test: tissue distribution after single intravenous administration of the emulsion of Ex. VI, GC headspace; assay type: in vivo, Sprague Dawley rats; conditions: female, Sprague-Dawley, rat, intravenous; 24 hours, females 1.8 g PFC/kg, all tissues except the blood, eyes, and skeletal muscle; read-out: concentration in tissues
value kind: concentration at 24 h

# lookup: concentration at 24 h of FC(F)(F)C(F)(F)C(F)(F)C(F)(F)C(F)(F)C(F)(F)C(F)(F)C(F)(F)Br [PFOB, perfluorooctyl bromide] > 100000 ng/g

====

half-life for assorted molecules
experiment: pharmacokinetics in subjects undergoing noncardiac surgical procedures; assay type: in vivo, human; conditions: human, whole blood; noncardiac surgery, 1.8 g PFC/kg; read-out: T1/2 (elimination half-life) (converted)
Report the figure in h without appending any unit label.

- molecule: "FC(F)(F)C(F)(F)C(F)(F)C(F)(F)C(F)(F)C(F)(F)C(F)(F)C(F)(F)Br [PFOB, perfluorooctyl bromide]"
  unit: "h"
  half-life: 3.77

# evaluate next
# lookup: half-life of FC(F)(F)C(F)(F)C(F)(F)C(F)(F)C(F)(F)C(F)(F)C(F)(F)C(F)(F)C(F)(F)C(F)(F)Br [PFDB, perfluorodecyl bromide] 5.56

====

experiment: pharmacokinetics in subjects undergoing noncardiac surgical procedures; type: in vivo, human; conditions: human, whole blood; noncardiac surgery, 1.8 g PFC/kg
AUC(0-inf) for assorted compounds
Report the figure in µg·h/mL without appending any unit label.

- compound: "FC(F)(F)C(F)(F)C(F)(F)C(F)(F)C(F)(F)C(F)(F)C(F)(F)C(F)(F)Br [PFOB, perfluorooctyl bromide]"
  result: 57400

# evaluate next
# lookup: AUC(0-inf) of FC(F)(F)C(F)(F)C(F)(F)C(F)(F)C(F)(F)C(F)(F)C(F)(F)C(F)(F)C(F)(F)C(F)(F)Br [PFDB, perfluorodecyl bromide] 2950

====

assay: Phase 1 pharmacokinetics in healthy human volunteers; format: in vivo; settings: Table VIII; 1.2 g PFC/kg
value kind: t1/2. 12 h (initial elimination half-life within the first 12 h post dose) (h)
Report the figure in h without appending any unit label.

# lookup: t1/2. 12 h (initial elimination half-life within the first 12 h post dose) of FC(F)(F)C(F)(F)C(F)(F)C(F)(F)C(F)(F)C(F)(F)C(F)(F)C(F)(F)C(F)(F)C(F)(F)Br [PFDB, perfluorodecyl bromide] 13.6

====

Cmax for assorted compounds
test: Phase 1 pharmacokinetics in healthy human volunteers; type: in vivo; conditions: human, blood, iv, 1.8 g PFC/kg, Table VII; healthy volunteers, 1.8 g PFC/kg single iv
Report the figure in µg/mL without appending any unit label.

- compound: "FC(F)(F)C(F)(F)C(F)(F)C(F)(F)C(F)(F)C(F)(F)C(F)(F)C(F)(F)C(F)(F)C(F)(F)Br [PFDB, perfluorodecyl bromide]"
  Cmax, µg/mL: 978

# evaluate next
# lookup: Cmax of FC(F)(F)C(F)(F)C(F)(F)C(F)(F)C(F)(F)C(F)(F)C(F)(F)C(F)(F)Br [PFOB, perfluorooctyl bromide] 22700

====

assay: pharmacokinetics in blood after single intravenous administration of the emulsion of Ex. VI; type: in vivo, Sprague Dawley rats; conditions: Sprague-Dawley, rat, 3.6 g/kg; female rats, 3.6 g PFC/kg single iv, blood; read-out: MRT(0-last)
value kind: MRT last (days)
Report the figure in days without appending any unit label.

# lookup: MRT last of FC(F)(F)C(F)(F)C(F)(F)C(F)(F)C(F)(F)C(F)(F)C(F)(F)C(F)(F)C(F)(F)C(F)(F)Br [PFDB, perfluorodecyl bromide] 18.3
